Molecular target: human GR (Homo sapiens)
Construct: U937 cells contain an endogenous glucocorticoid receptor (GR); endogenous in cells; host or cells: U937 cells stably transfected with the TNF-alpha promoter/beta-lactamase reporter
Experiment: Transrepression Assay (GITAR), TNFα-β-lactamase reporter gene in U937 cells
Assay type: cell-based
Conditions: GITAR Emax minus GRAMMER Emax; Table 1
Source text: Transrepression Assay (GITAR) This assay assesses the ability of test compounds to control transcription from the TNFα-β-lactamase reporter gene in U937 cells, a human myelomonocytic leukemia cell line that naturally expresses the human GR. The assay measures compound dependent-repression of the TNFa promoter linked to a reporter gene. The human U937 cells that had been stablely transfected with the TNF-α promoter driving β-lactamase are used for this assay. […]
observed-property: GITAR Greater than by GRAMMER % SEP (%)
Give bare numbers, in %.

Examples from the recorded data:
C[C@]12Cc3cnn(-c4ccc(F)cc4)c3C=C1CC[C@@H]2C(=O)N(CCc1ccccc1)Cc1ccccc1 [Compound 49] :: 10.1
C[C@]12Cc3cnn(-c4ccc(F)cc4)c3C=C1CC[C@@H]2C(=O)N(CCC#N)CCC#N [Compound 13] :: 13.6
CCN(CC(O)C(F)(F)F)C(=O)[C@H]1CCC2=Cc3c(cnn3-c3ccccc3)C[C@@]21C (stereo partly shown) [Compound 76] :: 6.1
CCN(CC(O)C(F)(F)F)C(=O)[C@H]1CCC2=Cc3c(cnn3-c3ccc(F)cc3)C[C@@]21C (stereo partly shown) [Compound 71] :: 24.0
C[C@]12Cc3cnn(-c4ccc(F)cc4)c3C=C1CC[C@@H]2C(=O)N(CCc1ccccc1F)CC(O)CC(F)(F)F (stereo partly shown) [Compound 95] :: 7.3

Count: 2. Required value per item: GITAR Greater than by GRAMMER % SEP.
1. CCCCN(CC=O)C(=O)[C@H]1CCC2=Cc3c(cnn3-c3ccc(F)cc3)C[C@@]21C [Compound 39]
2. CC(O)CN(CC(C)O)C(=O)[C@H]1CCC2=Cc3c(cnn3-c3ccc(F)cc3)C[C@@]21C (stereo partly shown) [Compound 10]

67.4
19.0

====

Target: human GR (Homo sapiens)
Construct: U937 cells contain an endogenous glucocorticoid receptor (GR); endogenous in cells; host or cells: U937 cells stably transfected with the TNF-alpha promoter/beta-lactamase reporter
Experiment: Transrepression Assay (GITAR), TNFα-β-lactamase reporter gene in U937 cells
Format: cell-based
Conditions: GITAR Emax minus GRAMMER Emax; Table 1
observed-property: GITAR Greater than by GRAMMER % SEP (%)
Numbers only, in %.

Examples from the recorded data:
C[C@]12Cc3cnn(-c4ccc(F)cc4)c3C=C1CC[C@@H]2C(=O)N(CCc1ccccc1F)CC(O)CC(F)(F)F (stereo partly shown) [Compound 87] :: 23.1
C[C@]12Cc3cnn(-c4ccc(F)cc4)c3C=C1CC[C@@H]2C(=O)N(CCc1ccccc1F)CC(O)CC(F)(F)F (stereo partly shown) [Compound 94] :: 8.0
C[C@]12Cc3cnn(-c4ccc(F)cc4)c3C=C1CC[C@@H]2C(=O)N1CCCC1CCc1ccccc1 (stereo partly shown) :: 6.2
CCCN(C[C@H](C)O)C(=O)[C@H]1CCC2=Cc3c(cnn3-c3ccc(F)cc3)C[C@@]21C :: 8.4
C[C@]12Cc3cnn(-c4ccc(F)cc4)c3C=C1CC[C@@H]2C(=O)N(CCc1ccccc1F)CC(O)C(F)(F)F (stereo partly shown) [Compound 93] :: 5.9
COc1cccc(CN(C)C(=O)[C@H]2CCC3=Cc4c(cnn4-c4ccc(F)cc4)C[C@@]32C)c1 :: 20.4

Next:
// lookup GITAR Greater than by GRAMMER % SEP for CCN(CCC(F)(F)F)C(=O)[C@H]1CCC2=Cc3c(cnn3-c3ccc(F)cc3)C[C@@]21C 30.6

====

Target: human GR (Homo sapiens, UniProt P04150)
Construct: U937 cells contain an endogenous glucocorticoid receptor (GR); endogenous in cells; host or cells: U937 cells stably transfected with the TNF-alpha promoter/beta-lactamase reporter
Sequence (P04150 whole entry): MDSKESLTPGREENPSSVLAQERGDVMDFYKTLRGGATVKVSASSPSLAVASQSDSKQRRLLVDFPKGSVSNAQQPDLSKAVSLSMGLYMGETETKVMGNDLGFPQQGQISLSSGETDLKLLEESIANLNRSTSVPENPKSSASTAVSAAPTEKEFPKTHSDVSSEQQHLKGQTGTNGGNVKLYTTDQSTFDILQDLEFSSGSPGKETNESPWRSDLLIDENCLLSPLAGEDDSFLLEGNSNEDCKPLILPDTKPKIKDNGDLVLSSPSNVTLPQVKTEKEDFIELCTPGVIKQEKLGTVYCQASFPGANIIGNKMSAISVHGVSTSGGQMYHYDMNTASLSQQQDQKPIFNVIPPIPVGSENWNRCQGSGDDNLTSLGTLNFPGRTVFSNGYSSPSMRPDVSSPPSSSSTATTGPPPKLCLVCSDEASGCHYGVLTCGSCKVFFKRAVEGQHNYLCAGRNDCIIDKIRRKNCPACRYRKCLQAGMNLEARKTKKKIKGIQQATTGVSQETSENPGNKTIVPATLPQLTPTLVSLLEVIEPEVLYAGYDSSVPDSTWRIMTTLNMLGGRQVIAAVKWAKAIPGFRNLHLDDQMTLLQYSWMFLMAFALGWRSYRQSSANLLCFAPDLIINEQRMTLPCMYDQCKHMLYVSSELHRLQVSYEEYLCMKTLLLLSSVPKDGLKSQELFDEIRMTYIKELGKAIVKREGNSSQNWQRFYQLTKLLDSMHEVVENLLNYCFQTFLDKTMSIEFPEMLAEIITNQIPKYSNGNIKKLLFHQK
Experiment: Transrepression Assay (GITAR), TNFα-β-lactamase reporter gene in U937 cells
Format: cell-based
Details: U-937, U937 cells; activity repressed by 100 nM dexamethasone = 100%; Table 1; read-out: Transrepression U937 Cells GITAR Emax
Tag: Criterion met if measured Emax is not below 60%, Criterion not met if it is.

C[C@]12Cc3cnn(-c4ccc(F)cc4)c3C=C1CC[C@@H]2C(=O)N(CCO)Cc1ccccc1F [Compound 25] :: Criterion not met
C[C@H](O)CN(CCC(F)(F)F)C(=O)[C@H]1CCC2=Cc3c(cnn3-c3ccc(F)cc3)C[C@@]21C [Compound 73] :: Criterion met
Cc1ccc(CCN(CC(O)CC(F)(F)F)C(=O)[C@H]2CCC3=Cc4c(cnn4-c4ccc(F)cc4)C[C@@]32C)cc1 (stereo partly shown) [Compound 85] :: Criterion not met

Emax >= 60% for C[C@]12Cc3cnn(-c4ccc(F)cc4)c3C=C1CC[C@@H]2C(=O)N(CCO)Cc1cc(F)cc(F)c1 [Compound 32] ? Criterion met

Emax >= 60% for C[C@]12Cc3cnn(-c4ccc(F)cc4)c3C=C1CC[C@@H]2C(=O)N(CCO)CCc1ccccc1 [Compound 35] ? Criterion met

Emax >= 60% for CCN(CC(O)C(F)(F)F)C(=O)[C@H]1CCC2=Cc3c(cnn3-c3ccccc3)C[C@@]21C (stereo partly shown) [Compound 76] ? Criterion met

Emax >= 60% for CO[C@H](C)CN(C)C(=O)[C@H]1CCC2=Cc3c(cnn3-c3ccc(F)cc3)C[C@@]21C [Compound 89] ? Criterion not met

====

Biological target: Glucocorticoid Receptor (Homo sapiens, UniProt P04150)
Construct: These cells express large amount of the GR and are very responsive to GC treatment; endogenous in cells; host or cells: A549 cells transiently transfected with the MMTV-LUC reporter
Sequence (P04150 whole entry): as above
Experiment: Trans-Activation Modulation of Glucocorticoid Receptor (GRAMMER), MMTV-LUC reporter gene in A549 cells
Format: cell-based
Settings: A549, A549 cells; Emax relative to 300 nM dexamethasone; Table 1; read-out: Transactivation A549 Cells GRAMMER Emax
observed-property: Emax (%)
One number for each entry, in %.

Examples from the recorded data:
CN(CC#N)C(=O)[C@H]1CCC2=Cc3c(cnn3-c3ccc(F)cc3)C[C@@]21C [Compound 41] :: 5.6
CCN(CC)C(=O)[C@H]1CCC2=Cc3c(cnn3-c3ccc(F)cc3)C[C@@]21C [Compound 55] :: 1.6
CCCN(CCC)C(=O)[C@H]1CCC2=Cc3c(cnn3-c3ccc(F)cc3)C[C@@]21C [Compound 1] :: 45.3

Next:
// lookup Emax for COc1cc(CN(CCO)C(=O)[C@H]2CCC3=Cc4c(cnn4-c4ccc(F)cc4)C[C@@]32C)cc(OC)c1 [Compound 34] 22.2

====

Molecular target: Glucocorticoid Receptor (Homo sapiens, UniProt P04150)
Construct: These cells express large amount of the GR and are very responsive to GC treatment; endogenous in cells; host or cells: A549 cells transiently transfected with the MMTV-LUC reporter
Test: Trans-Activation Modulation of Glucocorticoid Receptor (GRAMMER), MMTV-LUC reporter gene in A549 cells
Format: cell-based
Settings: A549, A549 cells; Emax relative to 300 nM dexamethasone; Table 1; read-out: Transactivation A549 Cells GRAMMER Emax
observed-property: Emax (%)
Answers are plain numbers, in %.

CCCN(C(=O)[C@H]1CCC2=Cc3c(cnn3-c3ccc(F)cc3)C[C@@]21C)C(C)CC (some centres unmarked) [Compound 16] :: 33.8
CC(C)CN(C[C@H](C)O)C(=O)[C@H]1CCC2=Cc3c(cnn3-c3ccc(F)cc3)C[C@@]21C [Compound 66] :: 67.6
CC(C)CN(CC(O)C(F)(F)F)C(=O)[C@H]1CCC2=Cc3c(cnn3-c3ccccc3)C[C@@]21C (some centres unmarked) [Compound 80] :: 70.5

Count: 6. Required value per item: Emax.
1. CCCCCN(CCO)C(=O)[C@H]1CCC2=Cc3c(cnn3-c3ccc(F)cc3)C[C@@]21C [Compound 38]
2. C[C@]12Cc3cnn(-c4ccc(F)cc4)c3C=C1CC[C@@H]2C(=O)N(CCO)CC(=O)c1coc2ccccc12 [Compound 29]
3. C[C@]12Cc3cnn(-c4ccc(F)cc4)c3C=C1CC[C@@H]2C(=O)N(CCc1ccccc1)Cc1ccccc1 [Compound 49]
4. CCCCN(CC(O)C(F)(F)F)C(=O)[C@H]1CCC2=Cc3c(cnn3-c3ccccc3)C[C@@]21C (some centres unmarked) [Compound 79]
5. C[C@]12Cc3cnn(-c4ccc(F)cc4)c3C=C1CC[C@@H]2C(=O)N1CCCC(Cc2cccc(C(F)(F)F)c2)C1 (some centres unmarked) [Compound 21]
6. C[C@]12Cc3cnn(-c4ccc(F)cc4)c3C=C1CC[C@@H]2C(=O)N1CCCCC1Cc1ccccc1 (some centres unmarked) [Compound 22]

1. 37.5
2. 2.7
3. 1.5
4. 70.7
5. 26.2
6. 5.5

====

Give Emax for every item shown.
Molecular target: Glucocorticoid Receptor (Homo sapiens, UniProt P04150)
Construct: These cells express large amount of the GR and are very responsive to GC treatment; endogenous in cells; host or cells: A549 cells transiently transfected with the MMTV-LUC reporter
Test: Trans-Activation Modulation of Glucocorticoid Receptor (GRAMMER), MMTV-LUC reporter gene in A549 cells
Format: cell-based
Conditions: A549, A549 cells; Emax relative to 300 nM dexamethasone; Table 1; read-out: Transactivation A549 Cells GRAMMER Emax
Answer with the figure and its unit, nothing else.

Cc1ccc(CCN(CC(O)CC(F)(F)F)C(=O)[C@H]2CCC3=Cc4c(cnn4-c4ccc(F)cc4)C[C@@]32C)cc1 (stereo partly drawn) :: 14.2%
C[C@]12Cc3cnn(-c4ccc(F)cc4)c3C=C1CC[C@@H]2C(=O)N1CCC(C(F)(F)F)CC1 :: 29.5%
CCCCN(CC(C)O)C(=O)[C@H]1CCC2=Cc3c(cnn3-c3ccc(F)cc3)C[C@@]21C (stereo partly drawn) :: 66.4%
C[C@H](O)CN(CCc1ccccc1F)C(=O)[C@H]1CCC2=Cc3c(cnn3-c3ccc(F)cc3)C[C@@]21C :: 21.9%
C[C@]12Cc3cnn(-c4ccc(F)cc4)c3C=C1CC[C@@H]2C(=O)NCc1ccc(Cl)cc1Cl :: 0.9%
COc1cccc(CN(C)C(=O)[C@H]2CCC3=Cc4c(cnn4-c4ccc(F)cc4)C[C@@]32C)c1 :: 7.4%
COc1ccccc1CCN(CC(O)CC(F)(F)F)C(=O)[C@H]1CCC2=Cc3c(cnn3-c3ccc(F)cc3)C[C@@]21C (stereo partly drawn) :: 18.8%
CCN(Cc1ccccc1)C(=O)[C@H]1CCC2=Cc3c(cnn3-c3ccc(F)cc3)C[C@@]21C :: 11.6%

Count: 2. Required value per item: Emax.
1. CC(C)CN(C[C@@H](C)O)C(=O)[C@H]1CCC2=Cc3c(cnn3-c3ccc(F)cc3)C[C@@]21C
2. C[C@]12Cc3cnn(-c4ccc(F)cc4)c3C=C1CC[C@@H]2C(=O)N(CCO)Cc1cccc(F)c1

1: 67%; 2: 12.2%

Count: 2. Required value per item: Emax.
1. C[C@]12Cc3cnn(-c4ccc(F)cc4)c3C=C1CC[C@@H]2C(=O)N(CCO)CC(O)C(F)(F)F (stereo partly drawn)
2. COC[C@H]1CCCN1C(=O)[C@H]1CCC2=Cc3c(cnn3-c3ccc(F)cc3)C[C@@]21C

["55.6%", "1.5%"]

Count: 3. Required value per item: Emax.
1. CC1CN(C(=O)[C@H]2CCC3=Cc4c(cnn4-c4ccc(F)cc4)C[C@@]32C)CC(C)O1 (stereo partly drawn)
2. COc1ccccc1CN(C)C(=O)[C@H]1CCC2=Cc3c(cnn3-c3ccc(F)cc3)C[C@@]21C
3. CN(C(=O)[C@H]1CCC2=Cc3c(cnn3-c3ccc(F)cc3)C[C@@]21C)C1CCCCC1

1: 9.4%; 2: 3.4%; 3: 3.2%
